The measurements presented in this section are drawn from ChEMBL document CHEMBL1158511.

assay.text: Oral bioavailability in Sprague-Dawley rat at 1 mg/kg
Format: ADME, organism-based
cond: in vivo

{"molecule": "Cc1cccc2c1C(=O)NC1CNCCN21 (single isomer, unassigned; (+))", "bioavailability": "49%"}

* * *

Reported log10 of Ki values for the following molecules.
system.under.test: 5-hydroxytryptamine receptor 2C (Homo sapiens)
Sequence (P28335 whole entry): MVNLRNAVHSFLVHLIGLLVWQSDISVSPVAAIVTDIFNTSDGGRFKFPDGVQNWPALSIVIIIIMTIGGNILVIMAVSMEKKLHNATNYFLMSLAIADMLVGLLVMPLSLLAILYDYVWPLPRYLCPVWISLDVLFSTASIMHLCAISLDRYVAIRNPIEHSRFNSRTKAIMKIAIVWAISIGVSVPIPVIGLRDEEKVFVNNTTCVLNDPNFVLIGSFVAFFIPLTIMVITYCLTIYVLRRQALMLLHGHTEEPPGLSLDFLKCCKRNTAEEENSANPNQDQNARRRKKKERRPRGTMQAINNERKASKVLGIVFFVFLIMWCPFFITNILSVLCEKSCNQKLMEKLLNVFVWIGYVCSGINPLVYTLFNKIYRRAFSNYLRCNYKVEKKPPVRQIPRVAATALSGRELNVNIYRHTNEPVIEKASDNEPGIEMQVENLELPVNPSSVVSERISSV
assay.text: Displacement of [125I]DOI from human recombinant 5HT2C receptor expressed in HEK293E cells
readout.label: log10 of Ki (log10 of the value in nM)

{"molecule": "Cc1ccc2c(c1)C(=O)NC1CNCCN21 (single isomer, unassigned)", "log10 of Ki": 3.00}
{"molecule": "Cc1ccc2c(c1)N1CCNCCC1NC2=O (stereo in doubt; (-)-3c)", "log10 of Ki": 1.78}
{"molecule": "O=C1NC2CNCCN2c2cccc(C(F)(F)F)c21 (single isomer, unassigned)", "log10 of Ki": 2.18}
{"molecule": "O=C1NC2CNCCN2c2ccccc21 (single isomer, unassigned)", "log10 of Ki": 3.29}
{"molecule": "O=C1NC2CNCCN2c2cccc(Cl)c21 (stereo not given)", "log10 of Ki": 2.35}
